Tested on: Oryza sativa (ORYSA)
Format: in vivo
condition-details: crop plant compatibility, 20 g/ha, effect vs untreated controls
metric: Post-emergence action against ORYSA in % (%)

Take a look at these entries with their results.
| compound | target-or-test-system | Post-emergence action against ORYSA in % / % |
| --- | --- | --- |
| O=C(COc1nn(-c2ccccn2)c(-c2ccc(F)nc2)c1Cl)NS(=O)(=O)CC(F)(F)F | Oryza sativa (ORYSA) | 0 |
| CCOC(=O)CN(C)S(=O)(=O)NC(=O)COc1nn(-c2ncccc2F)c(-c2ccc(F)nc2)c1Br | Oryza sativa (ORYSA) | 0 |
| COCCOC(=O)COc1nn(-c2ncccc2F)c(-c2ccc(F)nc2)c1Br | Oryza sativa (ORYSA) | 10 |
| COC(=O)C(C)OC(=O)C(C)Oc1nn(-c2ccccn2)c(-c2ccc(F)nc2)c1Br (centres unmarked) | Oryza sativa (ORYSA) | 0 |
| COC(=O)C1CCCN(C(=O)COc2nn(-c3ccccn3)c(-c3ccc(F)nc3)c2Br)C1 (centres unmarked) | Oryza sativa (ORYSA) | 0 |
| CCOC(=O)[C@@H](C)Oc1nn(-c2ncccc2F)c(-c2ccc(F)nc2)c1Cl | Oryza sativa (ORYSA) | 0 |
| O=C(O)COc1nn(-c2ncccc2F)c(-c2ccc(F)nc2)c1C1CC1 | Oryza sativa (ORYSA) | 10 |
| CCOC(=O)COc1nn(-c2ncccc2F)c(-c2ccc(F)nc2)c1Br [Example I-51] | Oryza sativa (ORYSA) | 20 |

[1] O=C(O)CSc1nn(-c2ccccn2)c(-c2cncc(Cl)c2)c1Br
[2] CCOC(=O)CCNC(=O)COc1nn(-c2ncccc2F)c(-c2ccc(OC)nc2)c1Br
[3] C[C@@H](Oc1nn(-c2ncccc2F)c(-c2ccc(F)nc2)c1Br)C(=O)O [Example I-50]
Qu. // ascending sort on recorded Post-emergence action against ORYSA in % Rank them, then answer with their labels in that order.
Ans. 1, 3, 2

[P] CCOC(=O)C(C)Oc1nn(-c2ccccn2)c(-c2ccc(F)nc2)c1C(F)(F)F (centres unmarked)
[Q] COC(=O)CCOC(=O)COc1nn(-c2ccccn2)c(-c2ccc(F)nc2)c1Br
Qu. Of P and Q , which carries the smaller reported Post-emergence action against ORYSA in % figure? Let me know the label of the one you choose.
Ans. P

---

System: Lolium rigidum (LOLRI)
procedure-summary: Pre-emergence herbicidal action against LOLRI
Format: in vivo
condition-details: dosage 320 g/ha
metric: Pre-emergence action against LOLRI in % (%)
Return type: number; implicit unit %.

Take a look at these entries with their results.
| molecule | Pre-emergence action against LOLRI in % [%] |
| --- | --- |
| COC(=O)C(C)COC(=O)COc1nn(-c2ccccn2)c(-c2cncc(F)c2)c1Cl (stereo not shown) [Example I-221] | 100 |
| COC(=O)[C@H](C)COC(=O)COc1nn(-c2ccccn2)c(-c2cncc(F)c2)c1Br [Example I-195] | 100 |
| CCOC(=O)COc1nn(-c2nc(F)ccc2F)c(-c2cncc(F)c2)c1Cl [Example I-163] | 90 |

API: the following record is the query input.
Qu. Bench note: what Pre-emergence action against LOLRI in % did CCOC(=O)COc1nn(-c2ncccc2C)c(-c2ccc(F)nc2)c1Br [Example I-321] show?
Ans. 100
